Tested on: U2OS
assayComment: Incucyte cell viability with U2OS; note: unitless GR value; below 1 slowed growth and below 0 cell loss
Format: toxicity, cell-based
runConditions: human, 6 h, 10 µM, compound concentration 10 uM, replicate number 1
Please enter label 1 where Growth Rate is greater than or equal to 0.8, and label 0 where it is lower.

stdin: # check: Growth Rate of `CN1C(=O)Cc2ccc(-c3ccc(C[C@@H](C#N)NC(=O)[C@@H]4N[C@H]5CC[C@@H]4C5)c(F)c3)cc21` is greater than or equal to 0.8
stdout: label 1

stdin: // inclusive: Growth Rate at least 0.8? input: `Cc1cc(-c2nncc3c(C(C)(C)C)c(OCc4ncnn4C)nn23)no1`
stdout: label 1

stdin: Growth Rate >= 0.8 for `c1ccc2c(c1)SCc1c-2[nH]c2ccccc12` ?
stdout: label 0

stdin: Could you tell me if the measured Growth Rate of `CCC(C)(C)CC[C@H](NC(=O)N1CCOCC1)C(=O)NC1(C#N)CCN(C)CC1` reaches 0.8 or more?
stdout: label 1

stdin: Growth Rate >= 0.8 for `CNC(=O)COc1cc2cc(Nc3nc(N4CCC(C(=O)N(C)C)CC4)ncc3Cl)cc(OC)c2n(C)c1=O` ?
stdout: label 1

stdin: In plain terms: is recorded Growth Rate at least 0.8 for `Cn1cncc1-c1cn(-c2cccc(C(=O)Nc3cccc(C(F)(F)F)c3)c2)nn1` ?
stdout: label 1

stdin: Has `Cn1nc(C(=O)NCc2ccc(C(=O)O)cc2)cc1-c1ccc2[nH]ccc2c1` a recorded Growth Rate greater than or equal to 0.8?
stdout: label 0

stdin: Please indicate if the recorded Growth Rate for `Cn1cc(C(=O)O)c2ccc(N3CCC(OCc4c(-c5c(Cl)cccc5Cl)noc4C4CC4)CC3)cc21` meets or exceeds 0.8.
stdout: label 1

stdin: Is Growth Rate at least 0.8? Consider `Cc1cc(OC2CCS(=O)(=O)CC2)cc(C)c1-c1cccc(COc2ccc(C(=O)O)c(F)c2)c1`
stdout: label 0

stdin: Would you say `COc1ccc(-c2coc3cc(O)cc(O)c3c2=O)cc1` shows Growth Rate at minimum 0.8?
stdout: label 1

stdin: Test whether the compound `Cc1nc2ccc(Cl)cc2c(-c2ccccc2)c1CC(=O)O.Cl` records Growth Rate of 0.8 or higher.
stdout: label 0

stdin: Kindly determine if Growth Rate recorded for `Cl.Clc1ccc(OC[C@H]2CCN2)cn1` is above or exactly 0.8.
stdout: label 0

stdin: hey, is Growth Rate for this one >= 0.8? `CC1CCN(C(=O)[C@@H](CCn2cccc2C#N)NS(=O)(=O)c2cccc3[nH]ccc23)CC1`
stdout: label 0

stdin: Threshold query (Growth Rate >= 0.8) on `Cc1c(NC(=O)COc2ccc(Cl)cc2C(=O)c2cc(F)cc(C(F)(F)F)c2)ccc(C(=O)O)c1F`
stdout: label 1

stdin: Check the entry `Nc1nccc(-c2c(-c3ccc(F)cc3)ncn2C2CCN(Cc3ccon3)CC2)n1` : does Growth Rate equal or exceed 0.8?
stdout: label 1

stdin: State whether the measured Growth Rate reaches 0.8, counting equality as reaching it, for `CN(C(=O)c1cnn2cccnc12)c1cc2c(cc1N1CCOCC1)C(=O)N(C[C@@H](F)C(C)(C)O)C2`
stdout: label 0

stdin: Could you verify whether the entry `CO[C@H]1CC[C@H](N(c2cc(F)c(Oc3ncc(Cn4nccn4)cc3C(F)(F)F)cc2C(=O)O)C(=O)[C@H]2CC[C@H](C)CC2)CC1` shows Growth Rate of no less than 0.8?
stdout: label 0
